Test method notes: solvent given as SMILES
Cond: in CC#N
Quantity measured: emission maximum (nm)
Numbers only, in nm.

Known results for molecules:
                                   molecule  units_text  test_result
0  CC1=[N+]2C(=C(c3ccc(N(C)C)cc3)c3ccc(C)n3[B-]2(F)F)C=C1          nm          511
1  O=C1C2=C(O[B-](F)(F)[n+]3c2ccc2ccccc23)c2cccc3c(N4CCOCC4)ccc1c23          nm          620
2  CCN(CC)c1ccc2cc(/C=C/C(O)=C3\CC/C(=C\c4cc5ccc(N(CC)CC)cc5oc4=O)C3=O)c(=O)oc2c1          nm          637

Could you report emission maximum for every entry in the following list?
1. C(=C\c1nc(/C=C/c2ccc(-n3c4ccccc4c4ccccc43)cc2)nc(/C=C/c2ccc(-n3c4ccccc4c4ccccc43)cc2)n1)/c1ccc(-n2c3ccccc3c3ccccc32)cc1
2. N#Cc1cc(C#Cc2c(F)c(F)nc(F)c2F)c(C#Cc2c(F)c(F)nc(F)c2F)cc1C#N
3. CN(C)c1ccc(C(=O)Nc2ccc([N+](=O)[O-])cc2)cc1

OUT:
1. 574
2. 370
3. 430

Provide reported emission maximum for each item, in the same order as listed.
1. COc1ccc(/C=C/C2=[O+][B-](F)(F)OC(/C=C/c3ccc(OC)cc3)=C2c2ccccc2)cc1
2. CC(C)(C)c1ccc2oc(-c3ccc(-c4nc5cc(C(C)(C)C)ccc5o4)s3)nc2c1
3. c1ccc(-c2nc(-c3ccccc3)n3ccccc23)cc1
4. COc1ccc2c3c(c4ccc(OC)cc4c2c1)=[N+]1C(=C(c2c(C)cc(C)cc2C)c2cc4c5ccc(OC)cc5c5cc(OC)ccc5c4n2[B-]1(F)F)C=3

OUT:
564
432
478
712

# batch: return emission maximum for each of the 3 molecules below
1. [C-]#[N+]c1ccc(-c2ccc(N(C)C)cc2)cc1
2. CN(C)CCN(Cc1c2ccccc2c(CN(CCN(C)C)c2ccc([N+](=O)[O-])cc2[N+](=O)[O-])c2ccccc12)c1ccc([N+](=O)[O-])cc1[N+](=O)[O-]
3. CCN(CC)c1ccc2cc3ccc(=[N+](CC)CC)cc-3oc2c1

OUT:
429
389
549

Hi there! I need emission maximum for each item below, if you can.
1. CCCCC1(c2ccc(OC)cc2)Nc2ccccc2N=C1c1ccc(OC)cc1 (centres undefined)
2. N#C/C(=C\c1ccc(Cl)cc1)c1nc(-c2ccccc2)cs1

OUT:
[522, 480]

* * *

Test method notes: solvent given as SMILES
Cond: in Cc1ccccc1
Lab note: anything with emission maximum at or over 500 nm counts as True; the rest go in False.

IN: Decide: is the reported value of emission maximum for CCCCC(CC)CN1C(=O)c2cc(Oc3ccc(OC)cc3)c3c4c(Cl)cc5c6c(cc(Cl)c(c7c(Oc8ccc(OC)cc8)cc(c2c37)C1=O)c64)C(=O)N(c1c(C(C)C)cccc1C(C)C)C5=O (stereo not drawn) equal to or greater than 500 nm?
OUT: True

IN: Is emission maximum for "COc1ccc2n1[B-](F)(F)[N+]1=C(c3ccccc3)C=CC1=C2c1ccc(C)cc1" at or above 500 nm?
OUT: True

* * *

Kindly state emission maximum for each of the entries shown.
Test method notes: solvent given as SMILES
Cond: in CCCCCC
One number for each entry, in nm.

# annotated cases, reported emission maximum shown
                                   molecule  test_result
0  CN(c1ccccc1)c1ccc(-c2ccc(-c3ccc(N(C)c4ccccc4)cc3)c3nc(-c4ccccc4)c(-c4ccccc4)nc23)cc1          598
1  CC(C)[Si](C#Cc1c2nc3ccccc3nc2c(C#C[Si](C(C)C)(C(C)C)C(C)C)c2nc3c(ccc4cc5ccccc5cc43)nc12)(C(C)C)C(C)C          648
2  CC(C)[Si](C#Cc1c2cc3ccccc3cc2c(C#C[Si](C(C)C)(C(C)C)C(C)C)c2nc3c(ccc4ccccc43)nc12)(C(C)C)C(C)C          661
3  CCCSc1ccc2n1[B-](F)(F)[N+]1=CC=CC1=C2c1ccccc1          588
4  Cc1c(C2=[N+]3C(=Cc4c(C)c5ccccc5n4[B-]3(F)F)c3ccccc32)[nH]c2ccccc12          644

I have 3 molecules here; please give me emission maximum for each one.
1. CCCCC1(c2ccc(OC)cc2)Nc2ccccc2N=C1c1ccc(OC)cc1 (stereo not drawn)
2. CN(C)c1ccc(/C=C/C=C/c2ccc(C#N)cc2)cc1
3. COc1ccc(-c2cc3c4c(c2)CCc2cc(-c5ccc(OC)cc5)cc(c2-4)CC3)cc1

OUT:
1. 485
2. 440
3. 384.62

* * *

Provide the reported emission maximum of each item.
Test method notes: solvent given as SMILES
Cond: in ClCCl
Please provide the amount together with its unit, number first.

Some molecules with recorded emission maximum:
>>> df
                                   molecule  test_result
0                 COc1ccc2oc(=N)c(C#N)cc2c1       468 nm
1  Cc1cc(C)c(-c2cc(-c3c(C)cc(C)cc3C)c3ccc4c(-c5c(C)cc(C)cc5C)cc(-c5c(C)cc(C)cc5C)c5ccc2c3c54)c(C)c1       411 nm
2  CCC(CC)COC1=CC2=C3c4cc(OCC(CC)CC)c(-c5ccccc5)n4[B-](F)(F)[n+]4nnn(c43)[B-](F)(F)[N+]2=C1c1ccccc1       730 nm
3  O=P1(c2ccccc2)C2=C(c3ccccc31)S(=O)(=O)c1ccccc12 (centres undefined)       466 nm

For each of the items listed, what is its emission maximum?
1. CCOC(=O)c1c(-c2cc3ccccc3oc2=O)nn(-c2ccc(Br)cc2)c1C(=O)OCC
2. Cc1ccc(C)n1-c1ccc(C#N)cc1
3. CCN(CC)c1ccc2cc(/C=C/C(=C(C#N)C#N)c3ccc4c(c3)c3ccccc3n4CC)c(=O)oc2c1
4. CCCCCc1c(C)c2c3ccccc3[nH]c2c2ccccc12
5. c1ccc2c(c1)-c1sc3ccccc3c1C21c2ccccc2-c2sc3ccccc3c21

OUT:
1: 400 nm; 2: 517 nm; 3: 604 nm; 4: 369 nm; 5: 368 nm

* * *

Test method notes: solvent given as SMILES
Cond: in C1CCOC1
I'd be grateful if you could share measured emission maximum for these entries.
One number for each entry, in nm.

These solved cases illustrate the format of a correct answer.
Smiles data	Units text	emission maximum
CC(C)(C)c1ccc(C2=CC3=C(c4ccccc4)c4cc(-c5ccc(C(C)(C)C)cc5)c(-c5ccc(C(C)(C)C)cc5)n4[B-](F)(F)[N+]3=C2c2ccc(C(C)(C)C)cc2)cc1	nm	649
c1ccc(-c2nc(-c3ccccc3)nc(-c3ccc(-n4c5ccccc5c5cc6c(cc54)C4(c5ccccc5-c5ccccc54)c4ccccc4-6)cc3)n2)cc1	nm	492.65
F[Si](c1c2ccccc2cc2ccccc12)(c1c2ccccc2cc2ccccc12)c1c2ccccc2cc2ccccc12	nm	416

API: the following record is the query input.
IN: Give reported emission maximum value for "CCCCCCCCCCCCCCCCOC(=O)c1ccc(N(c2ccccc2)c2ccccc2)cc1"
OUT: 428

* * *

Test method notes: solvent given as SMILES
Cond: in CC#N
Quantity measured: emission maximum (nm)
One number for each entry, in nm.

Report emission maximum for every entry below.
1. CCCCn1c2ccc(C#N)cc2c2cc(C#N)cc(-c3ccc(N(c4ccccc4)c4ccccc4)cc3)c21
2. c1ccc(-c2nc(-c3cccs3)[nH]c2-c2ccccc2)cc1

OUT:
1: 474; 2: 391

* * *

Test method notes: solvent given as SMILES
Cond: in CC(C)=O
Quantity measured: emission maximum (nm)
Answers are plain numbers, in nm.

Past entries and their recorded results:
Molecule	Units text	emission maximum
CN(C)c1ccc(/C=C/c2cc(/C=C/c3ccc(N(C)C)cc3)nc(/C=C/c3ccccc3)n2)cc1	nm	563
Cn1c(=O)c(/N=N/c2ccc(S(=O)(=O)O)c3ccccc23)c(O)c2ccccc21	nm	564
OCC1O[C@@H](Cc2cc(O)cc(/C=C/c3ccc(O)c(O)c3)c2)[C@H](O)[C@@H](O)[C@@H]1O (some centres not stated)	nm	376
CC(C)(C)c1ccc2c(c1)c1cc(C(C)(C)C)ccc1n2-c1ccccc1-c1nc(-c2ccccc2-n2c3ccc(C(C)(C)C)cc3c3cc(C(C)(C)C)ccc32)nc(-c2ccccc2P(=O)(c2ccccc2)c2ccccc2)n1	nm	533.4

Consider the following items and state reported emission maximum for each.
1. O=Cc1cc(O)c(C=O)cc1O
2. CCN(CC)c1ccc2cc(/C=C/C3=C4CC/C(=C\c5cc6ccc(N(CC)CC)cc6oc5=O)C4=[O+][B-](F)(F)O3)c(=O)oc2c1
3. CCn1c2ccccc2c2cc(/C=C/c3cc(/C=C/c4ccc5c(c4)c4ccccc4n5CC)[n+](CCCS(=O)(=O)[O-])c(/C=C/c4ccc5c(c4)c4ccccc4n5CC)c3)ccc21

OUT:
1. 470
2. 734
3. 610
